Molecular target: RIPK2 (human) (UniProt O43353)
Sequence (O43353 whole entry, looked up): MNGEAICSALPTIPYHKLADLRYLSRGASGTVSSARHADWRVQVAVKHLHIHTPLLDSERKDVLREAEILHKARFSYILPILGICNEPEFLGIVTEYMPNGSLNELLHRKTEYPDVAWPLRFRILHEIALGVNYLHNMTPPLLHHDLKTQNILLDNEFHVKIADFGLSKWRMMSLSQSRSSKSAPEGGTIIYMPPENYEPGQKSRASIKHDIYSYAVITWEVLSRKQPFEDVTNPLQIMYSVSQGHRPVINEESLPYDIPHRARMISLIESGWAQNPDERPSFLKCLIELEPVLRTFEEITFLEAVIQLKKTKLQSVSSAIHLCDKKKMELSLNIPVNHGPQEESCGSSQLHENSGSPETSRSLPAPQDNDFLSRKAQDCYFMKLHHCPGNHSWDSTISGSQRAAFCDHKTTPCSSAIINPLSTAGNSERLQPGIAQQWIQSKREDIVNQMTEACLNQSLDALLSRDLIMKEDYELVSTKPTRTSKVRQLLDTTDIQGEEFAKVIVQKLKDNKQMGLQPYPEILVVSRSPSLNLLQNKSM
Assay: KINOMEscan competition binding
Details: compound 10.0 µM
Threshold 80%: kinase still bound, per cent of control strictly smaller gives T, otherwise F.

[Q] For this compound, is kinase still bound, per cent of control lower than 80%? CC1=C(C(=O)Nc2cc3cn[nH]c3cc2F)C(c2ccc(C(F)(F)F)cc2)CC(=O)N1 (configuration not stated)
[A] T

[Q] For this compound, is kinase still bound, per cent of control lower than 80%? `CCN1CCN(Cc2ccc(NC(=O)c3ccc(C)c(/C=C/c4cnc5[nH]ccc5c4OC)c3)cc2C(F)(F)F)CC1`
[A] T

[Q] For this compound, is kinase still bound, per cent of control lower than 80%? `N#Cc1cc(-c2ccnc(Nc3ccc(-n4cnc(-c5cccnc5)n4)cc3)n2)cc(N2CCOCC2)c1`
[A] T

[Q] For this compound, is kinase still bound, per cent of control lower than 80%? COc1cc(C)c(Sc2cnc(NC(=O)c3ccc(CNC(C)C(C)C)cc3)s2)cc1C(=O)N1CCN(C(C)=O)CC1 (configuration not stated)
[A] F

[Q] For this compound, is kinase still bound, per cent of control lower than 80%? `COc1cc2c(Nc3ccc(NC(=O)c4ccccc4)cc3)ncnc2cc1OCCCN1CCOCC1`
[A] T

New cases:
[Q] For this compound, is kinase still bound, per cent of control lower than 80%? `COc1cc2ncnc(Nc3cccc(Cl)c3)c2cc1OC`
[A] T

[Q] For this compound, is kinase still bound, per cent of control lower than 80%? `COc1ccc(N(C(=O)Oc2cc(C(=O)Nc3cccc(C(F)(F)F)c3)ccc2C)c2ccnc(Nc3ccc(N4CCN(C)CC4)cc3)n2)c(OC)c1`
[A] T

Measured values drawn from the kinase profiling compilation of Christmann-Franck et al. (2016) for this set.
